Target: T1, EsCas13d, nuclease-dead (Eubacterium siraeum, UniProt B0MS50, R295A;H300A;R849A;H854A)
T1 sequence: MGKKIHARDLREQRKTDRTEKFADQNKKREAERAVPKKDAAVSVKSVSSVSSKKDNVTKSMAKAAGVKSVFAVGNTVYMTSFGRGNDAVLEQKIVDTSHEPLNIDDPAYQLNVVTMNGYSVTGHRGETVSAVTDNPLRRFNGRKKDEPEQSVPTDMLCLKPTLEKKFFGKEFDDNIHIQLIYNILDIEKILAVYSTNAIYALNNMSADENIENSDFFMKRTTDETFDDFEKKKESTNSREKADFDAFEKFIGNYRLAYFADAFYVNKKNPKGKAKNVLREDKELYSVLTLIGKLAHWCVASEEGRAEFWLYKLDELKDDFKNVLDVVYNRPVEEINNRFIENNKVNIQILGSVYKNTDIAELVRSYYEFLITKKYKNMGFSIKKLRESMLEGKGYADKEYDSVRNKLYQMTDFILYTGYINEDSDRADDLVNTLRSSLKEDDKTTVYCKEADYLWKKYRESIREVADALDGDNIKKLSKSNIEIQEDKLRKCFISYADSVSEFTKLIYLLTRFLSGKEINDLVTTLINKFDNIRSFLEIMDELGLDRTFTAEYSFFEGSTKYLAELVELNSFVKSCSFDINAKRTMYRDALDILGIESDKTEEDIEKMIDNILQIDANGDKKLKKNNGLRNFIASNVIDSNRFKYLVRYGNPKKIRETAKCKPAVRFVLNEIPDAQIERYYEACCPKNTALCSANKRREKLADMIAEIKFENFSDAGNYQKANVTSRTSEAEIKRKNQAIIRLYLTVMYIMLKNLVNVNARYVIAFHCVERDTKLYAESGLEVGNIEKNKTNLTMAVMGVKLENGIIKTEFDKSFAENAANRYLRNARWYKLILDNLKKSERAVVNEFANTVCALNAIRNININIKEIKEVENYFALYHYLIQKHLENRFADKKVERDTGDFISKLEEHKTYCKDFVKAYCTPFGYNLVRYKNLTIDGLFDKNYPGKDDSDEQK
Experiment: crRNA (strand 1, pre-loaded); Mg2+; 40 mM Tris-HCl pH 7.5, 150 mM NaCl, 6 mM MgCl2, 1 mM DTT, 0.1% Tween-20, 0.2 mg/ml BSA; 25 C; 10 min per concentration, then washed
Conditions: tags: His6-TwinStrep-SUMO cleaved; N-terminal SNAP kept (SNAP-Surface 488); label: 3' end held by stalled T7 RNA polymerase
parameter_measured: pKd
Schema: pKd number; meaning minus log10 of the concentration expressed in molar units.

Below are worked cases with known answers.
>  <binder>
target 1 MT 5'PFS AAG 3'PFS CUG (mixed) RNA 1: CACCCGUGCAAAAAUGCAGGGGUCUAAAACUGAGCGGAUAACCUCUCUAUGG RNA 2: GGGAAUGGAUCCACAUCUACGAAUUCAAGCCAUAGAGAGGUUAUCCGCUCACUGAGAUCGGAAGAGCACACGU

>  <parameter_measured>
pKd

>  <measured_number>
7.80

$$$$
>  <binder>
target 1 insA 3' of 12 (mixed) RNA 1: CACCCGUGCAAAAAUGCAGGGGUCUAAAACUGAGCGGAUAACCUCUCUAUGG RNA 2: GGGAAUGGAUCCACAUCUACGAAUUCGUACCAUAGAGAGGAUUAUCCGCUCACCGAGAUCGGAAGAGCACACGU

>  <parameter_measured>
pKd

>  <measured_number>
7.53

$$$$
>  <binder>
target 1 G13C,C21U (mixed) RNA 1: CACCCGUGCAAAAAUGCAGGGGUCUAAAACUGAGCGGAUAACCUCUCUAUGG RNA 2: GGGAAUGGAUCCACAUCUACGAAUUCGUACUAUAGAGACGUUAUCCGCUCACCGAGAUCGGAAGAGCACACGU

>  <parameter_measured>
pKd

>  <measured_number>
8.25

$$$$

Find the measured pKd of target 2 MT 5'PFS AUU 3'PFS CGG (mixed) RNA 1: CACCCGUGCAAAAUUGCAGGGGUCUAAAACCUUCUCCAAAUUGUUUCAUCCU RNA 2: GGGAAUGGAUCCACAUCUACGAAUUCAUUAGGAUGAAACAAUUUGGAGAAGCGGAGAUCGGAAGAGCACACGU and report it.
8.02
